Where do the numbers come from? From patent US6737383B1.

- Test system: rape
- Experimental Protocol: Test B pre/postemergence rape
- Format: in vivo, Brassica napus
- Conditions: Preemergence, Rate 500 g/ha; scale of 0 to 10 where 0 is no effect and 10 is complete control
Reported Endpoint: Plant response rating, Rape
Numbers only.

C#CC(C)n1c(=O)on(C(=O)N(c2ccccc2)C(C)C)c1=O (stereo not shown) = 10
CC1Cc2cccc(-n3c(=O)on(C(=O)N(c4ccc(F)cc4)C(C)C)c3=O)c2O1 (stereo not shown) = 0
CC(C)N(C(=O)n1oc(=O)n(COCc2ccccc2)c1=O)c1ccc(F)cc1 = 0
CC(C)N(C(=O)n1oc(=O)n(Cc2ccccn2)c1=O)c1ccc(F)cc1 = 0
CC(C)N(C(=O)n1oc(=O)n(CC(=O)C2CCC2)c1=O)c1ccc(F)cc1F = 9
CC(C)N(C(=O)n1oc(=O)n(CCC(=O)N(C)C)c1=O)c1ccc(F)cc1 = 10

# input Specify the recorded Plant response rating, Rape for `CC(C)N(C(=O)n1oc(=O)n(CCC2OCCO2)c1=O)c1ccc(F)cc1` , system: rape.
# output 10

* * *

- Tested on: pigweed
- Experimental Protocol: Test B pre/postemergence pigweed
- Format: in vivo, Amaranthus retroflexus
- Conditions: Preemergence, Rate 500 g/ha; scale of 0 to 10 where 0 is no effect and 10 is complete control
Reported Endpoint: Plant response rating, Redroot pigweed
One number for each entry.

For each listed entry, give its Plant response rating, Redroot pigweed.
1. CCn1ncc(Cn2c(=O)on(C(=O)N(c3ccc(F)cc3F)C(C)C)c2=O)c1Cl
2. CC(C)N(C(=O)n1oc(=O)n(Cc2ccccn2)c1=O)c1ccc(F)cc1
3. CC(C)N(C(=O)n1oc(=O)n(CC(C)[N+](=O)[O-])c1=O)c1ccc(F)cc1F (centres unmarked)
4. CC(C)N(C(=O)n1oc(=O)n(CC(=O)C2CCC2)c1=O)c1ccc(F)cc1F
5. COC(=O)C(CCO)n1c(=O)on(C(=O)N(c2ccc(Cl)cc2)C(C)C)c1=O (centres unmarked)
6. Cc1nc(C)c(-n2c(=O)on(C(=O)N(c3ccc(F)cc3)C(C)C)c2=O)s1

# output
[7, 7, 0, 8, 1, 0]

For each listed entry, give its Plant response rating, Redroot pigweed.
1. COP(=O)(CCn1c(=O)on(C(=O)N(c2ccc(F)cc2)C(C)C)c1=O)OC
2. Cc1ccccc1-n1c(=O)on(C(=O)N(c2ccc(C(C)C)cc2)C(C)C)c1=O

# output
1: 7; 2: 0

* * *

- Test system: wild oat
- Experimental Protocol: Test B pre/postemergence wild oat
- Type: in vivo, Avena fatua
- Conditions: Rate 125 g/ha, Postemergence; scale 0 to 10
Assign Wild oats plant response rating to each entry below.

Example molecules with recorded Wild oats plant response rating:
Cc1nc(C)c(Cn2c(=O)on(C(=O)N(c3ccc(F)cc3F)C(C)C)c2=O)s1 = 0
Cc1nc(C)c(-n2c(=O)on(C(=O)N(c3ccc(F)cc3)C(C)C)c2=O)s1 = 0
COc1cc(C)cc(C)c1-n1c(=O)on(C(=O)N(c2ccc(F)cc2)C(C)C)c1=O = 0

For the next question, use this molecule.
# input State, in one line, measured Wild oats plant response rating of `CC(C)N(C(=O)n1oc(=O)n(CCC2OCCO2)c1=O)c1ccc(F)cc1`
# output 3

* * *

- Tested on: velvetleaf
- Experimental Protocol: Test B pre/postemergence velvetleaf
- Type: in vivo, Abutilon theophrasti
- Conditions: Preemergence, Rate 125 g/ha
Reported Endpoint: Velvetleaf plant response rating (0 to 10 scale)
Answers are plain numbers.

Example compounds with recorded Velvetleaf plant response rating (0 to 10 scale):
CC(C)N(C(=O)n1oc(=O)n(C2CC3CCC2C3)c1=O)c1ccccc1 (centres unmarked) [Compound 328] = 0
CC(C)N(C(=O)n1oc(=O)n(C)c1=O)c1ccc(F)cc1F [Compound 368] = 7
CC(C)N(C(=O)n1oc(=O)n(Cc2nnsc2Cl)c1=O)c1ccc(F)cc1F [Compound 320] = 0
CC(C)N(C(=O)n1oc(=O)n(C2CC3CCC2C3)c1=O)c1ccc(F)cc1 (centres unmarked) [Compound 327] = 0

For each listed entry, give its Velvetleaf plant response rating (0 to 10 scale).
1. CC(C)N(C(=O)n1oc(=O)n(N2C(C)CCCC2C)c1=O)c1ccc(F)cc1F (centres unmarked) [Compound 383]
2. CC(C)N(C(=O)n1oc(=O)n(Cc2ccccc2-c2ccccc2)c1=O)c1ccc(F)cc1 [Compound 313]
3. CC(C)N(C(=O)n1oc(=O)n(CC2CCOC2)c1=O)c1ccc(F)cc1 (centres unmarked) [Compound 375]

# output
0
0
3

# input State, in one line, measured Velvetleaf plant response rating (0 to 10 scale) of CCN(C(=O)n1oc(=O)n(C2CC2)c1=O)C1CCCCC1 [Compound 298]
# output 0
